- target-system: LRPPRC (UniProt P42704)
- assay-procedure: Kd (EC50 corrected by depletion factor)
pKd: −log10 of the molar value.

- sequence-entry: "CUGUCCU"
  pKd: 5.90
- sequence-entry: "AAUAAA"
  pKd: 5.95

---

- target-system: PRPF3 (UniProt O43395)
- Sequence: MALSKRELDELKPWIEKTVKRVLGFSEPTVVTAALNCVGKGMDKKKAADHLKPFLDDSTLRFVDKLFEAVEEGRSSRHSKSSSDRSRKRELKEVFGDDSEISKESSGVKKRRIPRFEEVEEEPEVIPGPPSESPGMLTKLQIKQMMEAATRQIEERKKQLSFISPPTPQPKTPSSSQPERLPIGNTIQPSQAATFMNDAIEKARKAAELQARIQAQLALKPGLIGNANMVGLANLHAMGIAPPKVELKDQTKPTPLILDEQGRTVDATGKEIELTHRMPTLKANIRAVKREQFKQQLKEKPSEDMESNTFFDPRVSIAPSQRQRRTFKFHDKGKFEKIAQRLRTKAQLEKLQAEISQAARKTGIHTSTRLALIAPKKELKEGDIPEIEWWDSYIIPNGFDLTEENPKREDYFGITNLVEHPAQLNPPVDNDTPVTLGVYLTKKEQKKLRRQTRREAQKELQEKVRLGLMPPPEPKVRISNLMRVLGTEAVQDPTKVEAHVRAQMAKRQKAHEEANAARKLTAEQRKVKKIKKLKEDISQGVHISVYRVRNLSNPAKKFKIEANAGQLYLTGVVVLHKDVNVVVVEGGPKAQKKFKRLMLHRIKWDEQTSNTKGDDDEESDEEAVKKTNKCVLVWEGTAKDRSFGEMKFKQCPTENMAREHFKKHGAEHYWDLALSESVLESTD
- assay-procedure: EC50 of free RNA motif oligo competing protein binding to immobilised probe
pEC50: −log10 of the molar value.

- sequence-entry: "UAUUUAU"
  pEC50: 5.15

All values here come from the supplement of paper PMC6379048.
